assay: Solubility of the compound in 2.5 % DMSO by UV/visible spectroscopy; assay type: physicochemical
measured.property: solubility (µM)

- chemical.smiles: "Cc1cc2occ(CN(C)CCN(C)Cc3cn(-c4cccc(C(F)(F)F)c4)c4ccccc34)c(=O)c2cc1C"
  uom: "µM"
  value: 33

====

assay: Solubility of the compound in 10 % PEG3350 by UV/visible spectroscopy; format: physicochemical
measured.property: solubility (µM)

- chemical.smiles: "Cc1cc2occ(CN(C)CCN(C)Cc3cn(-c4cccc(C(F)(F)F)c4)c4ccccc34)c(=O)c2cc1C"
  measured.property: "solubility"
  uom: "µM"
  value: 96

====

assay: Solubility of the compound in 10 % glycerol by UV/visible spectroscopy; format: physicochemical

- chemical.smiles: "Cc1cc2occ(CN(C)CCN(C)Cc3cn(-c4cccc(C(F)(F)F)c4)c4ccccc34)c(=O)c2cc1C"
  solubility (µM): 28

====

experiment: Solubility of the compound in 10 % MeOH by UV/visible spectroscopy; assay type: physicochemical
measured.property: solubility (µM)

- chemical.smiles: "Cc1cc2occ(CN(C)CCN(C)Cc3cn(-c4cccc(C(F)(F)F)c4)c4ccccc34)c(=O)c2cc1C"
  uom: "µM"
  value: 83

====

test: Solubility of the compound in citrate-phosphate buffer at pH 6.5; type: physicochemical

- chemical.smiles: "Cc1cc2occ(CN(C)CCN(C)Cc3cn(-c4cccc(C(F)(F)F)c4)c4ccccc34)c(=O)c2cc1C"
  solubility / µM: 10

====

test: Solubility of the compound in 2.5 % glycerol by UV/visible spectroscopy; type: physicochemical
measured.property: solubility (µM)

- chemical.smiles: "Cc1cc2occ(CN(C)CCN(C)Cc3cn(-c4cccc(C(F)(F)F)c4)c4ccccc34)c(=O)c2cc1C"
  uom: "µM"
  value: 15

====

assay: Solubility of the compound in 2.5 % DMF by UV/visible spectroscopy; format: physicochemical

- chemical.smiles: "Cc1cc2occ(CN(C)CCN(C)Cc3cn(-c4cccc(C(F)(F)F)c4)c4ccccc34)c(=O)c2cc1C"
  solubility [µM]: 35

====

test: Solubility of the compound in 10 % DMF by UV/visible spectroscopy; format: physicochemical

- chemical.smiles: "Cc1cc2occ(CN(C)CCN(C)Cc3cn(-c4cccc(C(F)(F)F)c4)c4ccccc34)c(=O)c2cc1C"
  solubility [µM]: 82

====

assay: Solubility of the compound in 5 % DMF by UV/visible spectroscopy; type: physicochemical
measured.property: solubility (µM)

- chemical.smiles: "Cc1cc2occ(CN(C)CCN(C)Cc3cn(-c4cccc(C(F)(F)F)c4)c4ccccc34)c(=O)c2cc1C"
  uom: "µM"
  value: 58

====

test: Solubility of the compound in 5 % MeOH by UV/visible spectroscopy; type: physicochemical
measured.property: solubility (µM)

- chemical.smiles: "Cc1cc2occ(CN(C)CCN(C)Cc3cn(-c4cccc(C(F)(F)F)c4)c4ccccc34)c(=O)c2cc1C"
  measured.property: "solubility"
  value: 58

====

assay: Solubility of the compound in 5 % PEG3350 by UV/visible spectroscopy; type: physicochemical

- chemical.smiles: "Cc1cc2occ(CN(C)CCN(C)Cc3cn(-c4cccc(C(F)(F)F)c4)c4ccccc34)c(=O)c2cc1C"
  uom: "µM"
  solubility: 84

====

test: Solubility of the compound in 5 % glycerol by UV/visible spectroscopy; format: physicochemical

- chemical.smiles: "Cc1cc2occ(CN(C)CCN(C)Cc3cn(-c4cccc(C(F)(F)F)c4)c4ccccc34)c(=O)c2cc1C"
  solubility, µM: 19
